Reference for the values: patent US20240294604A1

# system-tested: T1, A Proliferation Inducing Ligand (APRIL) (human), O75888
# T1 chain: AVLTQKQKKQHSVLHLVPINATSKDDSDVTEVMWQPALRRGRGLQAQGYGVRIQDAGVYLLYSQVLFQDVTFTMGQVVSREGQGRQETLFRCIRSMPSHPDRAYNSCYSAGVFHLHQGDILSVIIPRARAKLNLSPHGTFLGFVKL
# test-protocol: binding assay of FIG. 1 (flow cytometry titration, one-site specific binding fit; format not stated); Example 4 results, unit printed µM
# study-conditions: remark: other sources report otherwise
assay-readout: Kd

INSERT INTO assay_data (binder, assay_readout, measured_value) VALUES
  ('wild type human BCMA extracellular domain (sBCMA WT ECD), Q02223 1-54 (receptor) MLQMAGQCSQNEYFDSLLHACIPCQLRCSSNTPPLTCQRYCNASVTNSVKGTNA', 'Kd', '32 pM');
